# Tested on: Ipomoea hederacea (IPOHE)
# TEST_DETAILS: B4 Pre-Emergence Efficacy Test 2
# Format: in vivo
# ASSAY_CONTEXT: 250 g/ha, after 13 days
METRIC: percentage damage caused to the plant, five point scale, IPOHE

[[record]]
test_smiles = "Cc1nn(C)c(=O)c(-c2c(F)ccc(Cl)c2CCc2nn(C)c3ccccc23)c1O"
value = "3 (3=40-59%)"

[[record]]
test_smiles = "Cc1nn(C)c(=O)c(-c2c(F)ccc(Cl)c2CCc2ccc3c(c2)CC(=O)N3)c1O"
value = "3 (3=40-59%)"

[[record]]
test_smiles = "Cc1nn(C)c(=O)c(-c2c(F)ccc(Cl)c2CCc2ccc3ncsc3c2)c1O"
value = "5 (5=80-100%)"

[[record]]
test_smiles = "Cc1nn(C)c(=O)c(-c2c(F)ccc(Cl)c2CCc2ccc3ccsc3c2)c1O"
value = "5 (5=80-100%)"

[[record]]
test_smiles = "Cc1nn(C)c(=O)c(-c2c(F)ccc(Cl)c2CCc2cnc3c(ccn3C)c2)c1O"
value = "5 (5=80-100%)"

[[record]]
test_smiles = "Cc1nn(C)c(=O)c(-c2c(F)ccc(Cl)c2CCc2ccc3c(c2)OC(C)(C)O3)c1O"
value = "4 (4=60-79%)"

[[record]]
test_smiles = "Cc1nn(C)c(=O)c(-c2c(F)ccc(Cl)c2CCc2ccc3scnc3c2)c1O"
value = "5 (5=80-100%)"

[[record]]
test_smiles = "Cc1nc2ccc(CCc3c(Cl)ccc(F)c3-c3c(O)c(C)nn(C)c3=O)cc2o1"
value = "5 (5=80-100%)"

[[record]]
test_smiles = "Cc1nn(C)c(=O)c(-c2c(F)ccc(Cl)c2CCc2ccc3c(ccn3C)c2)c1O"
value = "2 (2=20-39%)"

[[record]]
test_smiles = "Cc1nn(C)c(=O)c(-c2c(F)ccc(Cl)c2CCc2ccc3oc(=O)[nH]c3c2)c1O"
value = "3 (3=40-59%)"

[[record]]
test_smiles = "Cc1nn(C)c(=O)c(-c2c(F)ccc(Cl)c2CCc2ccc3cnn(C)c3c2)c1O"
value = "5 (5=80-100%)"

[[record]]
test_smiles = "Cc1nn(C)c(=O)c(-c2c(F)ccc(Cl)c2CCc2ccc3ccccc3c2)c1O"
value = "1 (1=0-19%)"

[[record]]
test_smiles = "Cc1nn(C)c(=O)c(-c2c(F)ccc(Cl)c2CCc2ccc3sccc3c2)c1O"
value = "5 (5=80-100%)"

[[record]]
test_smiles = "Cc1nn(C)c(=O)c(-c2c(F)ccc(Cl)c2CCc2ccc3ccn(C)c3c2)c1O"
value = "2 (2=20-39%)"

[[record]]
test_smiles = "Cc1nn(C)c(=O)c(-c2c(F)ccc(Cl)c2CCc2nc3ccccc3o2)c1O"
value = "4 (4=60-79%)"

[[record]]
test_smiles = "Cc1nn(C)c(=O)c(-c2c(F)ccc(Cl)c2CCc2ccc3c(C)noc3c2)c1O"
value = "5 (5=80-100%)"


====

Catalogue of compounds with associated percentage damage caused to the plant, five point scale, AMARE
# System: Amaranthus retoflexus (AMARE)
# TEST_DETAILS: B2 Post-Emergence Efficacy Test 2
# Type: in vivo
# ASSAY_CONTEXT: 250 g/ha, after 13 days
METRIC: percentage damage caused to the plant, five point scale, AMARE

[[record]]
test_smiles = "Cc1nn(C)c(=O)c(-c2c(F)ccc(Cl)c2CCc2cnc3c(ccn3C)c2)c1O"
system = "Amaranthus retoflexus (AMARE)"
value = "4 (4=60-79%)"

[[record]]
test_smiles = "Cc1nn(C)c(=O)c(-c2c(F)ccc(Cl)c2CCc2ccc3c(c2)CC(=O)N3)c1O"
system = "Amaranthus retoflexus (AMARE)"
value = "2 (2=20-39%)"

[[record]]
test_smiles = "Cc1nn(C)c(=O)c(-c2c(F)ccc(Cl)c2CCc2ccc3c(c2)OC(F)(F)O3)c1O"
system = "Amaranthus retoflexus (AMARE)"
value = "5 (5=80-100%)"

[[record]]
test_smiles = "Cc1nc2ccc(CCc3c(Cl)ccc(F)c3-c3c(O)c(C)nn(C)c3=O)cc2o1"
system = "Amaranthus retoflexus (AMARE)"
value = "5 (5=80-100%)"

[[record]]
test_smiles = "Cc1nn(C)c(=O)c(-c2c(F)ccc(Cl)c2CCc2ccc3c(c2)OC(C)(C)O3)c1O"
system = "Amaranthus retoflexus (AMARE)"
value = "3 (3=40-59%)"

[[record]]
test_smiles = "Cc1nn(C)c(=O)c(-c2c(F)ccc(Cl)c2CCc2ccc3ccsc3c2)c1O"
system = "Amaranthus retoflexus (AMARE)"
value = "4 (4=60-79%)"

